- SYSTEM_TESTED: VirE (Streptomyces virginiae)
- EXPERIMENTAL_DETAILS: other fluorescence titration; tryptophan fluorescence quenching; VirC, VirD, VirD mutant or VirE at 5 μM in TE buffer (20 mM Tris-HCl pH 8.5, 2 mM EDTA), 25 °C, titrated with ACP ligand (0–150 μM); excitation 295 nm; one site-specific binding model; averaged data of two independent measurements
pKd: −log10 of the molar value.
Parameter threshold = 4. Response is Criterion met when pKd meets or exceeds it, else Criterion not met.

Use these answered entries as a reference point.
{"BINDER": "methylcrotonyl-ACP5a (domain or fragment, methylcrotonyl form (3-methylcrotonate as substrate mimic on the phosphopantetheine)) GPGSAGRQEEIAEEVARLLAGVLYLEPDRLDPEETFLTLGVDSILGVEFVAAVNAAYPVGVKATALYDHPTPAAFARHIAESLGA", "CATEGORY_LABEL": "Criterion not met"}
{"BINDER": "apo-ACP5b (domain or fragment) GPGSAVAVDPAPVARALREELARTLYCEPGDIDDEASFNTLGLDSILGVEFVAFVNQTYGLDEKAGILYDHPSLAALSRHVAGRAAPV", "CATEGORY_LABEL": "Criterion not met"}

Query :: Is it the case that apo-ACP5a (domain or fragment) GPGSAGRQEEIAEEVARLLAGVLYLEPDRLDPEETFLTLGVDSILGVEFVAAVNAAYPVGVKATALYDHPTPAAFARHIAESLGA has pKd reaching or exceeding 4?
Result :: Criterion not met

Query :: API: above_or_equal(metric=pKd, cutoff=4) for item holo-ACP5b (domain or fragment, phosphopantetheine (Ppant) on S6871) GPGSAVAVDPAPVARALREELARTLYCEPGDIDDEASFNTLGLDSILGVEFVAFVNQTYGLDEKAGILYDHPSLAALSRHVAGRAAPV
Result :: Criterion met

Query :: hey, is pKd for this one >= 4? methylcrotonyl-ACP5b (domain or fragment, methylcrotonyl form (3-methylcrotonate as substrate mimic on the phosphopantetheine)) GPGSAVAVDPAPVARALREELARTLYCEPGDIDDEASFNTLGLDSILGVEFVAFVNQTYGLDEKAGILYDHPSLAALSRHVAGRAAPV
Result :: Criterion met
